# measurement.target: BTK (Homo sapiens, UniProt Q06187)
# Sequence (Q06187 whole entry): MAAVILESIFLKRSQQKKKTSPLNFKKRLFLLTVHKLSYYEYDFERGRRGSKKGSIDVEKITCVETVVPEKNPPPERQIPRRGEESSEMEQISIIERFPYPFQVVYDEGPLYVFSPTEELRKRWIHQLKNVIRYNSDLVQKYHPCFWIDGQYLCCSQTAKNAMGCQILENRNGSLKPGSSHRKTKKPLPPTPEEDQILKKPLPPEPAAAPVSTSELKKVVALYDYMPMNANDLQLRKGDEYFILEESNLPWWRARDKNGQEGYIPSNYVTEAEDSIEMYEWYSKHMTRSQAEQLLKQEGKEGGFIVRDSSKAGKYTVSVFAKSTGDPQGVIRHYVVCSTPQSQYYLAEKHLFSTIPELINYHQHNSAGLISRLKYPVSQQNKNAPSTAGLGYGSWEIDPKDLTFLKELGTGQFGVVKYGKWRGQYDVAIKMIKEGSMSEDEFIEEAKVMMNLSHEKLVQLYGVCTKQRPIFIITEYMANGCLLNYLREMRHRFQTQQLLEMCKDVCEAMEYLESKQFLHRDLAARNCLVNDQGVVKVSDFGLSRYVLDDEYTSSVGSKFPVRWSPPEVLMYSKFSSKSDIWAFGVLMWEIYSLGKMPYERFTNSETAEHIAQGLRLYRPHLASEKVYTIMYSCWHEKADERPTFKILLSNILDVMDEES
# procedure.text: Kinase Profiler, residual kinase activity
# Type: biochemical
# condition.label: BTK; inhibitor at 500 nM; read-out: percentage of the remaining kinase activity
Mark true only for remaining activity at 0.5 µM values smaller than 40%; exact matches and larger values are false.

molecule="COC1C(N(C)C(=O)C(N)Cc2c[nH]cn2)CC2OC1(C)n1c3ccccc3c3c4c(c5c6ccccc6n2c5c31)C(=O)NC4 (stereo not shown)" discrete_label=true
molecule="COC1C(N(C)C(=O)C(N)Cc2ccc(OC(C)(C)C)cc2)CC2OC1(C)n1c3ccccc3c3c4c(c5c6ccccc6n2c5c31)C(=O)NC4 (stereo not shown)" discrete_label=false
molecule="COC1C(N(C)C(=O)C(N)Cc2ccc(O)cc2)CC2OC1(C)n1c3ccccc3c3c4c(c5c6ccccc6n2c5c31)C(=O)NC4 (stereo not shown)" discrete_label=true
molecule="COC1C(N(C)C(=O)C(N)Cc2cn(C(=O)OC(C)(C)C)c3ccccc23)CC2OC1(C)n1c3ccccc3c3c4c(c5c6ccccc6n2c5c31)C(=O)NC4 (stereo not shown)" discrete_label=false
molecule="COC1C(N(C)C(=O)C(N)CCC(=O)OC(C)(C)C)CC2OC1(C)n1c3ccccc3c3c4c(c5c6ccccc6n2c5c31)C(=O)NC4 (stereo not shown)" discrete_label=false

-- ask Item COC1C(N(C)Cc2ccc(-c3ccccc3)cc2)CC2OC1(C)n1c3ccccc3c3c4c(c5c6ccccc6n2c5c31)C(=O)NC4 (stereo not shown) : remaining activity at 0.5 µM beneath 40%, strictly?
-- reply false

-- ask Item COC1C(N(C)C(=O)C(N)CCC(=O)O)CC2OC1(C)n1c3ccccc3c3c4c(c5c6ccccc6n2c5c31)C(=O)NC4 (stereo not shown) : remaining activity at 0.5 µM beneath 40%, strictly?
-- reply true
